# SYSTEM TESTED: T1, recombinant human TL1A (human, UniProt O95150 71-251)
# T1 chain: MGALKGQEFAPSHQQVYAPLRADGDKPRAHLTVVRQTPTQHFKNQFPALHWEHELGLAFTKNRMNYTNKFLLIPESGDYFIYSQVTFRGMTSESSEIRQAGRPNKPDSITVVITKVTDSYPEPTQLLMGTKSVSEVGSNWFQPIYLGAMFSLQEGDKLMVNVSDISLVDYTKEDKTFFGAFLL
# TEST NAME: cell-based or functional assay
Below, each entry is listed with its recorded Whole blood IFNγ assay, Bioactivity relative to TL1A-0002.
Number in fold, nothing else.

Worked cases, answers included:
INSERT INTO results (binder, endpoint_result) VALUES
  ('TL1A-0303 (antibody, human IgG1, kappa, V domains shown, human IgG1 effector-function-minimized/kappa) VH: QVQLVQSGAEVKKPGASVKVSCKASGYDFTYYGIGWVRQAPGQGLEWMGWISTYNTGTHYAPSLQGRVTMTTDTSTSTAYMELRSLRSDDTAVYYCARESYYGSGAHRGGMDVWGQGTTVTVSS VL: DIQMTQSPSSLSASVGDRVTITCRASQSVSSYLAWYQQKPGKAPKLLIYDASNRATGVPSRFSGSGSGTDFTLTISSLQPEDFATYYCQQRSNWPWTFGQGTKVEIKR', 1.5),
  ('TL1A-0308 (antibody, human IgG1, kappa, V domains shown, human IgG1 effector-function-minimized/kappa) VH: QVQLVQSGAEVKKPGASVKVSCKASGYDFTYYGIGWVRQAPGQGLEWMGWISTYNTNTHYAPSLQGRVTMTTDTSTSTAYMELRSLRSDDTAVYYCARESYYGSGAFRGGMDVWGQGTTVTVSS VL: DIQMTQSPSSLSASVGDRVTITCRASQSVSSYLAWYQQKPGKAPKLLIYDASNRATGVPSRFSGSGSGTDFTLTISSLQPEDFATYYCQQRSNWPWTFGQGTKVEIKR', 1),
  ('TL1A-0291 (antibody, human IgG1, kappa, V domains shown, human IgG1 effector-function-minimized/kappa) VH: QVQLVQSGAEVKKPGASVKVSCKASGYDFTYYGVSWVRQAPGQGLEWMGWISTYNTGTHYAQKLQGRVTMTTDTSTSTAYMELRSLRSDDTAVYYCARESYYGSGAHRGGMDVWGQGTTVTVSS VL: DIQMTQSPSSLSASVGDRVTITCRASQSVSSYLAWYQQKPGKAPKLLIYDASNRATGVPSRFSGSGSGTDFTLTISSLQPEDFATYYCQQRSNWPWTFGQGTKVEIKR', 1.1),
  ('TL1A-0285 (antibody, human IgG1, kappa, V domains shown, human IgG1 effector-function-minimized/kappa) VH: QVQLVQSGAEVKKPGASVKVSCKASGYDFTYYGVSWVRQAPGQGLEWMGWISTYNDNTHYAPSLQGRVTMTTDTSTSTAYMELRSLRSDDTAVYYCARESYYGSGAHRGGMDVWGQGTTVTVSS VL: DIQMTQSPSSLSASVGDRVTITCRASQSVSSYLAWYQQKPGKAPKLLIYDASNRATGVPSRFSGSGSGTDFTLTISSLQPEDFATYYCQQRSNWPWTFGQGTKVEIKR', 1.2);

Attention now turns to another entry.
Can you look up the measured Whole blood IFNγ assay, Bioactivity relative to TL1A-0002 of TL1A-0261 (antibody, human IgG1, kappa, V domains shown, human IgG1 effector-function-minimized/kappa) VH: QVQLVQSGAEVKKPGASVKVSCKASGYDYTYYGISWVRQAPGQGLEWMGWISTYNTGTHYAPSLQGRVTMTTDTSTSTAYMELRSLRSDDTAVYYCARESYYGSGAHRGGMDVWGQGTTVTVSS VL: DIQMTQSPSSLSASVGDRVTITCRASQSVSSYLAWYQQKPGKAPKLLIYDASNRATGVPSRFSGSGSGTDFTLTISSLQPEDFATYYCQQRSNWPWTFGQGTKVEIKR for me?
1.1
